molecular target: 5-HT1 receptor; test: Interaction with serotonin receptors: 5-HT1 receptor, calf hippocampus, ligand 3H-serotonin; conditions: ligand 3H-serotonin (Table 2), read-out: K1
measured-property: Ki (nM)
The response must be a number in nM with no trailing unit.

molecule	units-symbol	Ki
C[C@@H]1CCC[C@H](C)N1CCc1c[nH]c2ccc(Br)cc12 [compound 18]	nM	30
CC1CCCCN1CCc1c[nH]c2ccccc12 (centres unmarked) [compound 25]	nM	170
C[C@H]1CCC[C@H](C)N1CCc1c[nH]c2ccc(O)cc12 (relative stereo) [compound 17]	nM	25
COc1ccc2[nH]cc(CCN3[C@@H](C)CCC[C@@H]3C)c2c1 (relative stereo) [compound 22]	nM	45
C[C@H]1CCC[C@H](C)N1CCc1c[nH]c2ccc(OCc3ccccc3)cc12 (relative stereo) [compound 15]	nM	500

# Ki of C[C@@H]1CCC[C@H](C)N1CCc1c[nH]c2ccc(Cl)cc12 [compound 23] = 60

# Ki of C[C@@H]1CCC[C@H](C)N1CCc1c[nH]c2ccc(-n3cc(CCN4[C@H](C)CCC[C@@H]4C)c4cc(Br)ccc43)cc12 [compound 32] = 680

# Ki of Cc1ccc(S(=O)(=O)n2cc(CCN3[C@H](C)CCC[C@@H]3C)c3cc(Br)ccc32)cc1 [compound 31] = 3200

----------
Target: 5-HT1 receptor
Assay: Interaction with serotonin receptors: 5-HT1 receptor, calf hippocampus, ligand 3H-serotonin
Format: binding
Conditions: ligand 3H-serotonin (Table 2), read-out: K1
Experimental: Interaction with serotonin receptors Inhibition constant K1 (nmol l^-1) Ligand: ^3 H--serotonin In generally similar manner there were prepared additional compounds which, when tested against 5-HT, receptors as in Example 7, gave the results shown in Table 2.
measured-property: pKi
Scale: pKi equals -log10([C]), with [C] in mol/L.

Use these answered entries as a reference point.
compound	assay-value
C[C@@H]1CCC[C@H](C)N1CCc1c[nH]c2ccc(OCc3ccccc3)cc12 [compound 14]	6.10
C[C@@H]1CCC[C@H](C)N1CCc1c[nH]c2ccc(C#N)cc12	6.62

# pKi of COc1ccc2[nH]cc(CCN3[C@H](C)CCC[C@@H]3C)c2c1 [compound 21] = 7.15

# pKi of C[C@@H]1CCC[C@H](C)N1CCc1c[nH]c2ccc(F)cc12 = 6.77

----------
target: 5-HT1 receptor; test: Interaction with serotonin receptors: 5-HT1 receptor, calf hippocampus, ligand 3H-serotonin; conditions: ligand 3H-serotonin (Table 2), read-out: K1
pKi: −log10 of the molar value.
Threshold rule: pKi greater than or equal to 6 is 1 (yes); below that, 0 (no).

Worked examples follow.
molecule	assay-target	discrete-label
C[C@@H]1CCC[C@H](C)N1CCc1c[nH]c2ccc(C(N)=O)cc12	5-HT1 receptor	1 (yes)
C[C@@H]1CCC[C@H](C)N1CCc1cn(C(N)=O)c2ccccc12	5-HT1 receptor	0 (no)
COc1ccc2[nH]cc(CCN3[C@@H](C)CCC[C@@H]3C)c2c1 (relative stereo) [compound 20]	5-HT1 receptor	1 (yes)
C[C@@H]1CCC[C@H](C)N1CCc1c[nH]c2ccc(O)cc12 [compound 16]	5-HT1 receptor	1 (yes)
Cc1ccc2[nH]cc(CCN3[C@H](C)CCC[C@@H]3C)c2c1	5-HT1 receptor	1 (yes)
C[C@@H]1CCC[C@H](C)N1CCc1cn(C(=O)OC(C)(C)C)c2ccccc12	5-HT1 receptor	0 (no)
C[C@H]1CCC[C@H](C)N1CCc1c[nH]c2ccccc12 (relative stereo)	5-HT1 receptor	0 (no)

With those in mind, consider the next molecule.
(Q) Hello, I need to know if C[C@@H]1CCC[C@H](C)N1CCc1c[nH]c2ccc(O)cc12 [compound 12] has measured pKi not below 6. Thanks!
(A) 1 (yes)

----------
# Lookup of reported Ki keyed by entry
biological target: 5-HT1 receptor; test: Interaction with serotonin receptors: 5-HT1 receptor, calf hippocampus, ligand 3H-serotonin; conditions: ligand 3H-serotonin (Table 2), read-out: K1
The response must be a number in µM with no trailing unit.

Use these answered entries as a reference point.
molecule	Ki, µM
COc1ccc2[nH]cc(CCN3[C@H](C)CCC[C@@H]3C)c2c1 [compound 10]	0.01
C[C@@H]1CCC[C@H](C)N1CCc1c[nH]c2ccc(OCc3ccccc3)cc12 [compound 11]	0.2

Below: the item to evaluate.
# Ki of C[C@@H]1CCC[C@H](C)N1CCc1cn(C)c2ccc(Br)cc12 [compound 34] = 1.1

----------
biological target: 5-HT1 receptor; assay: Interaction with serotonin receptors: 5-HT1 receptor, calf hippocampus, ligand 3H-serotonin; settings: ligand 3H-serotonin (Table 2), read-out: K1
# Lookup of reported pKi keyed by entry
Scale: pKi equals -log10([C]), with [C] in mol/L.

# pKi of C[C@@H]1CCC[C@H](C)N1CCc1c[nH]c2ccc(CN)cc12 = 6.30

# pKi of COc1ccc2[nH]cc(CCN3[C@H](C)CCC[C@@H]3C)c2c1 [compound 9] = 7.89

# pKi of C[C@@H]1CCC[C@H](C)N1CCc1c[nH]c2ccccc12 = 6.10

# pKi of CC1CC(C)N(CCc2c[nH]c3ccccc23)C(C)C1 (centres unmarked) = 6.04

# pKi of CC1CC(C)N(CCc2c[nH]c3ccc(Cl)cc23)C(C)C1 (centres unmarked) = 6.18

Each recorded value in this set is attributed to patent US4870085A.
